System: Tribolium castaneum
Assay: Insecticidal activity against 3 to 8 days old Tribolium castaneum (red flour beetle) assessed as mortality at 1 ug/mL measured after 72 hr by fumigation assay
Assay type: functional
experimental.readout: mortality at 1 µg/mL (%)
Expressed in %, but write only the number.

May I ask what mortality at 1 µg/mL has been recorded for COc1ccc(-c2c(O)c3c(OC)c(CC=C(C)C)c4c(c3oc2=O)C=CC(C)(C)O4)cc1 [SCANDENIN A] ?
63.8

May I ask what mortality at 1 µg/mL has been recorded for C[C@@H]1O[C@@H](OC[C@H]2O[C@@H](Oc3cc(O)c4c(=O)c(-c5ccc(O)cc5)coc4c3)[C@H](O)[C@@H](O)[C@@H]2O)[C@H](O)[C@H](O)[C@H]1O [SPHAEROBIOSIDE] ?
100

May I ask what mortality at 1 µg/mL has been recorded for CC(C)=CCc1c2c(c(O)c3c(=O)c(-c4ccc(O)cc4)coc13)C=CC(C)(C)O2 [WARANGALONE] ?
37.2

May I ask what mortality at 1 µg/mL has been recorded for CC(C)=CCc1c2c(c(O)c3c(=O)cc(-c4ccc(O)cc4)oc13)C=CC(C)(C)O2 [LAXIFOLIN] ?
100

May I ask what mortality at 1 µg/mL has been recorded for CC(C)=CCc1c2c(c3occ(-c4ccc(O)cc4)c(=O)c3c1O)C=CC(C)(C)O2 [OSAJIN] ?
100
